Test system: E. coli strain W3110
Assay Remarks: Synergy assays: Biolog chemical sensitivity panels with Group IB metal, coefficient of drug interaction (CDI) from relative growth
Type: cell-based
Measurement Context: Gold section of Table 5; second of three gold concentrations (μM, value not given); biocide concentration 4 of 4
Readout Label: CDI (coefficient of drug interaction)

For orientation, consider the following solved cases.
| Molecule | Readout Label | Measured Value |
| --- | --- | --- |
| CCCCCCCC[N+](C)(CCCCCCCC)CCCCCCCC.[Br-] | CDI (coefficient of drug interaction) | Tox |
| O=C1C=C(O)C(=O)c2ccccc21 | CDI (coefficient of drug interaction) | Tox |
| O=S(=O)(F)Cc1ccccc1 | CDI (coefficient of drug interaction) | 0.85 |
| O=C(O)CI [lodoacetate] | CDI (coefficient of drug interaction) | Tox |
| CCCCCCCCCCCC[N+](C)(C)C.[Br-] | CDI (coefficient of drug interaction) | Tox |

So what's the measured CDI (coefficient of drug interaction) for this one? O=C1C=C2C(=CCOC2O)O1 (stereo not drawn)
Tox

---

System: E. coli strain W3110
Assay Remarks: Synergy assays: Biolog chemical sensitivity panels with Group IB metal, coefficient of drug interaction (CDI) from relative growth
Format: cell-based
Measurement Context: Gold (μM), first of 3 gold concentrations; biocide concentration 4 of 4
Readout Label: CDI (coefficient of drug interaction), gold + biocide

For orientation, consider the following solved cases.
| Smiles Structure | Measured Value |
| --- | --- |
| CC1=C(C(=O)Nc2ccccc2)S(=O)(=O)CCO1 | Tox |
| Cc1onc(-c2ccccc2)c1C(=O)N[C@@H]1C(=O)N2[C@@H]1SC(C)(C)[C@@H]2C(=O)O | Tox |
| O=C(O)/C=C/c1ccccc1 | Tox |
| CCN1CCN(C(=O)N[C@@H](C(=O)N[C@@H]2C(=O)N3[C@@H]2SC(C)(C)[C@@H]3C(=O)O)c2ccccc2)C(=O)C1=O | Tox |
| Cc1onc(-c2ccccc2Cl)c1C(=O)N[C@@H]1C(=O)N2[C@@H]1SC(C)(C)[C@@H]2C(=O)O | Tox |

Next item in the queue.
Request - read-out CDI (coefficient of drug interaction), gold + biocide | tested on E. coli strain W3110 | compound "O=[N+]([O-])c1ccc(O)c([N+](=O)[O-])c1"
Tox

---

For each of the molecules below, state its CDI (coefficient of drug interaction).
Test system: E. coli strain W3110
Assay Remarks: Synergy assays: Biolog chemical sensitivity panels with Group IB metal, coefficient of drug interaction (CDI) from relative growth
Format: cell-based
Measurement Context: Gold section of Table 5; first of three gold concentrations (μM, value not given); biocide concentration 2 of 4
Give bare numbers.

| Smiles Structure | Tested System | Readout Label | Measured Value |
| --- | --- | --- | --- |
| CCCCCCCCCCCC[N+](C)(C)C.[Br-] | E. coli strain W3110 | CDI (coefficient of drug interaction) | 1.00 |

Next item in the queue.
So what's the measured CDI (coefficient of drug interaction) for this one? "CN[C@@H]1[C@@H](O)[C@@H](O[C@@H]2[C@@H](O)[C@H](O[C@H]3O[C@H]([C@@H](C)O)[C@@H](O)[C@H](O)[C@H]3N)[C@@H](N)C[C@H]2N)OC[C@]1(C)O"
1.00

---

Tested on: E. coli strain W3110
Assay Remarks: Synergy assays: Biolog chemical sensitivity panels with Group IB metal, coefficient of drug interaction (CDI) from relative growth
Format: cell-based
Measurement Context: Gold section of Table 5; third of three gold concentrations (μM, value not given); biocide concentration 2 of 4
Readout Label: CDI (coefficient of drug interaction)

| Molecule | Readout Label | Measured Value |
| --- | --- | --- |
| O=C1C=C2C(=CCOC2O)O1 (stereo not drawn) | CDI (coefficient of drug interaction) | Tox |
| O=C(O)CI [lodoacetate] | CDI (coefficient of drug interaction) | Tox |
| CN(C)S(=O)(=O)N(SC(F)(Cl)Cl)c1ccccc1 | CDI (coefficient of drug interaction) | Tox |

---

Tested on: E. coli strain W3110
Assay Remarks: Synergy assays: Biolog chemical sensitivity panels with Group IB metal, coefficient of drug interaction (CDI) from relative growth
Type: cell-based
Measurement Context: Copper (mM), 1st of 3 copper concentrations (head line not shown); biocide concentration 1 of 4; E. coli
For each of the compounds below, state its CDI (coefficient of drug interaction).
Answers are plain numbers.

| Compound | CDI (coefficient of drug interaction) |
| --- | --- |
| O=C(O)/C=C/c1ccccc1 | 0.85 |
| N.N.N.N.N.N.N.N.N.N.N.N.N.N.[Cl-].[Cl-].[Cl-].[Cl-].[Cl-].[Cl-].[O-2].[O-2].[Ru+3].[Ru+3].[Ru+4] | 0.73 |
| O=[N+]([O-])c1ccc(O)c([N+](=O)[O-])c1 | 0.87 |
| NCC(=O)NO [glycine hydroxamate] | 1.36 |
| NC(CO)C(=O)NO (racemic) [D,L-serine hydroxamate] | 0.98 |
| CC1(C)S[C@@H]2[C@H](NC(=O)[C@H](NC(=O)N3CCNC3=O)c3ccccc3)C(=O)N2[C@H]1C(=O)O | 0.97 |

Your task in this section: give CDI (coefficient of drug interaction) for each listed record.
1. O=S(=O)(F)Cc1ccccc1
2. NC(CCC(=O)NO)C(=O)O [L-glutamic-γ-hydroxamate]

0.76
1.14

---

Test system: E. coli strain W3110
Assay Remarks: Synergy assays: Biolog chemical sensitivity panels with Group IB metal, coefficient of drug interaction (CDI) from relative growth
Assay type: cell-based
Measurement Context: Gold section of Table 5; first of three gold concentrations (μM, value not given); biocide concentration 3 of 4
Readout Label: CDI (coefficient of drug interaction)

| Compound | Measured Value |
| --- | --- |
| C[n+]1cc2c3c(ccc2c2ccc4cc5c(cc4c21)OCO5)OCO3 | Tox |
| CCCCC(CC)CNC(=N)NC(=N)NCCCCCCNC(=N)NC(=N)NCC(CC)CCCC (stereo not shown) | Tox |
| CN[C@H]1C[C@@H](N)[C@H](O)[C@@H](O[C@@H]2O[C@H](CO)[C@H](O)[C@@H]3OC4(O[C@H]23)O[C@H]([C@@H](N)CO)[C@H](O)[C@H](O)[C@H]4O)[C@@H]1O (stereo partly shown) | Tox |
| O=C1C=C2C(=CCOC2O)O1 (stereo not shown) | Tox |
| CN(C)C(=O)/N=N/C(=O)N(C)C [diamide] | Tox |

Your task in this section: give CDI (coefficient of drug interaction) for each listed record.
1. Nc1n[nH]c(N)n1
2. Cc1cc(O)cc(C)c1Cl
3. O=C(O)CI [lodoacetate]
4. CCn1cc(C(=O)O)c(=O)c2ccc(C)nc21
5. O=[N+]([O-])c1ncc[nH]1

1: Tox; 2: Tox; 3: Tox; 4: Tox; 5: Tox

---

Test system: E. coli strain W3110
Assay Remarks: Synergy assays: Biolog chemical sensitivity panels with Group IB metal, coefficient of drug interaction (CDI) from relative growth
Format: cell-based
Measurement Context: Gold (μM), third of 3 gold concentrations; biocide concentration 3 of 4
Readout Label: CDI (coefficient of drug interaction), gold + biocide

| Molecule | Measured Value |
| --- | --- |
| CCCCCCCC(=O)[O-].[Na+] [sodium caprylate] | Tox |
| CC1=C(C(=O)Nc2ccccc2)S(=O)(=O)CCO1 [Oxycarboxin] | Tox |
| c1ccc(-c2nn(-c3ccccc3)[n+](-c3cccc4ccccc34)n2)cc1 [Tetrazolium violet] | Tox |

---

System: E. coli strain W3110
Assay Remarks: Synergy assays: Biolog chemical sensitivity panels with Group IB metal, coefficient of drug interaction (CDI) from relative growth
Format: cell-based
Measurement Context: Gold (μM), third of 3 gold concentrations; biocide concentration 4 of 4
Readout Label: CDI (coefficient of drug interaction), gold + biocide

| Smiles Structure | Measured Value |
| --- | --- |
| O=C(O)/C=C/c1ccccc1 | Tox |
| CCN1CCN(C(=O)N[C@@H](C(=O)N[C@@H]2C(=O)N3[C@@H]2SC(C)(C)[C@@H]3C(=O)O)c2ccccc2)C(=O)C1=O | Tox |
| N.N.N.N.N.N.N.N.N.N.N.N.N.N.[Cl-].[Cl-].[Cl-].[Cl-].[Cl-].[Cl-].[O-2].[O-2].[Ru+3].[Ru+3].[Ru+4] | 1.09 |
| O=C(O)c1cc(O)c(O)c(O)c1 | Tox |

---

Tested on: E. coli strain W3110
Assay Remarks: Synergy assays: Biolog chemical sensitivity panels with Group IB metal, coefficient of drug interaction (CDI) from relative growth
Assay type: cell-based
Measurement Context: Silver 0.5 μM; 2nd of four biocide concentrations; E. coli
Readout Label: CDI (coefficient of drug interaction), silver + biocide

| Compound | Measured Value |
| --- | --- |
| O=C1C=C2C(=CCOC2O)O1 (centres unmarked) [patulin] | Tox |
| c1ccc(-c2ccccn2)nc1 [2,2′-dipyridyl] | Tox |
| CCCCc1ccc(C(=O)O)nc1 [fusaric acid] | Tox |
| OC(CCN1CCCCC1)(c1ccccc1)c1ccccc1 [pridinol] | Tox |

Next item in the queue.
So what's the measured CDI (coefficient of drug interaction), silver + biocide for this one? CN(C)S(=O)(=O)N(SC(F)(Cl)Cl)c1ccccc1 [dichlofluanid]
Tox
